# subject of test: EGFR (Homo sapiens)
# Construct: Add 7 ug A431 cell lysate per well (EGFR source); endogenous in cells; host or cells: A431
# Sequence (P00533 25-1210): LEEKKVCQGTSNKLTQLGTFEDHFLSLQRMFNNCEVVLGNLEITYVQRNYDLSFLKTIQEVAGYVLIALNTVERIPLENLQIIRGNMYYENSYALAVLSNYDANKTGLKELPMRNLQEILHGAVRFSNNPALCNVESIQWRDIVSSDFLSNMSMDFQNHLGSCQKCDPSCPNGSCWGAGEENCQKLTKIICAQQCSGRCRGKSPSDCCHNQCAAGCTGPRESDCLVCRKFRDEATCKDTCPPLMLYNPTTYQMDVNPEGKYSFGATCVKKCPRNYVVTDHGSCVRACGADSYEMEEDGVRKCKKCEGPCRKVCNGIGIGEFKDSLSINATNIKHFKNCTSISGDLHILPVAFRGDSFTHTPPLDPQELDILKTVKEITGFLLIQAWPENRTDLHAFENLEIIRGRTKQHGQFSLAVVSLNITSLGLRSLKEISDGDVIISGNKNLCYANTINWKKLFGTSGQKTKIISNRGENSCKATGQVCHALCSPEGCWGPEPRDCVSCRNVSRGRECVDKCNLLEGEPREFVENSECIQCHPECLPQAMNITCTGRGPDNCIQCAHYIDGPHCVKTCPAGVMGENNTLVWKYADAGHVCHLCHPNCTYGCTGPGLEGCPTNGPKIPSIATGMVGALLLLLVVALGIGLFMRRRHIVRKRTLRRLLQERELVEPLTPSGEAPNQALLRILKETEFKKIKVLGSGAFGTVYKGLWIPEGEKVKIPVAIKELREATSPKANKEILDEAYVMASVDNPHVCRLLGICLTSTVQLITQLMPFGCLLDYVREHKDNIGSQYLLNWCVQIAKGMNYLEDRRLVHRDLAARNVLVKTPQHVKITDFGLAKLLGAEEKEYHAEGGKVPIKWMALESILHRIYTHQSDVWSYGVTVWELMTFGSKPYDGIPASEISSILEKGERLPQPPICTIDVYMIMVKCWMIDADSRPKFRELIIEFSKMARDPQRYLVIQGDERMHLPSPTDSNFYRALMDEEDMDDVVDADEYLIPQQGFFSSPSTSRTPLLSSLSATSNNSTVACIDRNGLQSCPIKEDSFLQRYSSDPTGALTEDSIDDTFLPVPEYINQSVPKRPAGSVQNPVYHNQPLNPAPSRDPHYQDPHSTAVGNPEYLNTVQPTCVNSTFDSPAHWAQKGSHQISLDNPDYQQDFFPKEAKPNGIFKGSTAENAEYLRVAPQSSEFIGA
# assay procedure: EGFR ELISA assay (in vitro kinase activity, EGFR captured from A431 cell lysate)
# Format: biochemical
# Set-up: concentration or dose not given beside the values
Entry flag: t if Biochem EGFR %Inhibition reaches 10%; f if it does not.

In plain terms: is recorded Biochem EGFR %Inhibition at least 10% for COc1c(I)cc(C=C2C(=O)Nc3ccc(I)cc32)cc1C(C)(C)C ?
f

Could you do the same for O=C1Nc2c(Br)cc(Br)cc2C1=Cc1ccc(O)c([N+](=O)[O-])c1 , please?
t

Item: COc1c(C(C)(C)C)cc(C=C2C(=O)Nc3ccc(CCCl)cc32)cc1C(C)(C)C
t

// repeat for Cc1c(Br)ccc2c1C(=Cc1cc3ccccc3o1)C(=O)N2 and report
f

Now give it for O=C1Nc2ccc(S(=O)(=O)N3CCOCC3)cc2C1=Cc1ccc(N2CCOCC2)cc1 too.
t

Query Cc1c(Br)ccc2c1C(=Cc1cc(Cl)ccc1O)C(=O)N2 next
t

Please answer likewise for CC(=O)n1cc(C=C2C(=O)Nc3c(Br)cc(Br)cc32)c2ccccc21
t

One more compound: Cc1c(Br)ccc2c1C(=Cc1coc3ccccc3c1=O)C(=O)N2
f

// next record CNS(=O)(=O)c1ccc2c(c1)C(=Cc1ccccc1OCC(=O)O)C(=O)N2
t

Reference for the values: patent EP1247803A2
